# Test system: NCI-H2228
# assayRemarks: relative viability (nuclei count vs DMSO), 5 days (fraction); higher = more cells survive
# experimentalContext: first compound 8 µM
measure: relative viability
Reply with just the number.

Worked set:
# molecule, assayedTarget, relative viability
rows = [
    ("Nc1cccc2c1CN(C1CCC(=O)NC1=O)C2=O (stereo not drawn) [Lenalidomide] + O=C(CCCCCCC(=O)Nc1ccccc1)NO [Vorinostat] (partner 1 µM)", "NCI-H2228", 1.12),
    ("Nc1cccc2c1CN(C1CCC(=O)NC1=O)C2=O (stereo not drawn) [Lenalidomide] + Cc1cc(Nc2cc(N3CCN(C)CC3)nc(Sc3ccc(NC(=O)C4CC4)cc3)n2)n[nH]1 [Tozasertib] (partner 0.1 µM)", "NCI-H2228", 0.345),
]

Now look at this entry.
Entry Nc1cccc2c1CN(C1CCC(=O)NC1=O)C2=O (stereo not drawn) [Lenalidomide] + CS(=O)(=O)N1CCN(Cc2cc3nc(-c4cccc5[nH]ncc45)nc(N4CCOCC4)c3s2)CC1 [Pictilisib] (partner 1 µM) , relative viability reported as 0.355

* * *

# System: NCI-H358
# assayRemarks: relative viability (nuclei count vs DMSO), 5 days (fraction); higher = more cells survive
# experimentalContext: first compound 2 µM
measure: relative viability
Reply with just the number.

Worked set:
# compound, assayedTarget, relative viability
records = [
    ("Cc1csc(=NC2CCCCC2)n1/N=C/c1ccc(O)c(O)c1O [MIM1] + C[C@@H](Oc1cc(-c2cnn(C3CCNCC3)c2)cnc1N)c1c(Cl)ccc(F)c1Cl [Crizotinib] (partner 1 µM)", "NCI-H358", 0.545),
    ("CN1CCN(CCOc2cc(OC3CCOCC3)c3c(Nc4c(Cl)ccc5c4OCO5)ncnc3c2)CC1 [Saracatinib] + CS(=O)(=O)CCNCc1ccc(-c2ccc3ncnc(Nc4ccc(OCc5cccc(F)c5)c(Cl)c4)c3c2)o1 [Lapatinib] (partner 2 µM)", "NCI-H358", 0.384),
    ("CN1CCN(CCOc2cc(OC3CCOCC3)c3c(Nc4c(Cl)ccc5c4OCO5)ncnc3c2)CC1 [Saracatinib] + O=C(c1cc(Cc2n[nH]c(=O)c3ccccc23)ccc1F)N1CCN(C(=O)C2CC2)CC1 [Olaparib] (partner 8 µM)", "NCI-H358", 0.324),
]

NCI-H358 data for CN1CCN(CCOc2cc(OC3CCOCC3)c3c(Nc4c(Cl)ccc5c4OCO5)ncnc3c2)CC1 [Saracatinib] + CS(=O)(=O)N1CCN(Cc2cc3nc(-c4cccc5[nH]ncc45)nc(N4CCOCC4)c3s2)CC1 [Pictilisib] (partner 1 µM) ; its relative viability: 0.257

* * *

# Tested on: LCLC-97TM1
# assayRemarks: relative viability (nuclei count vs DMSO), 5 days (fraction); higher = more cells survive
# experimentalContext: first compound 2.53 µM
Label rule met when relative viability is strictly below 0.5; at or above that, label rule not met.

# molecule, assignedCategory
rows = [
    ("Nc1cccc2c1CN(C1CCC(=O)NC1=O)C2=O (stereo unspecified) [Lenalidomide] + C[C@@H](Oc1cc(-c2cnn(C3CCNCC3)c2)cnc1N)c1c(Cl)ccc(F)c1Cl [Crizotinib] (partner 1 µM)", "rule met"),
    ("Nc1cccc2c1CN(C1CCC(=O)NC1=O)C2=O (stereo unspecified) [Lenalidomide] + CC(=O)Nc1cccc(-n2c(=O)n(C3CC3)c(=O)c3c(Nc4ccc(I)cc4F)n(C)c(=O)c(C)c32)c1 [Trametinib] (partner 0.02 µM)", "rule met"),
    ("Nc1cccc2c1CN(C1CCC(=O)NC1=O)C2=O (stereo unspecified) [Lenalidomide] + NC(=O)Nc1cc(-c2cccc(F)c2)sc1C(=O)N[C@H]1CCCNC1 [AZD7762] (partner 0.2 µM)", "rule met"),
]

Quick check: relative viability of Nc1cccc2c1CN(C1CCC(=O)NC1=O)C2=O (stereo unspecified) [Lenalidomide] + COc1cccc2cc(-c3nc([C@H]4CC[C@H](C(=O)O)CC4)n4ncnc(N)c34)[nH]c12 [OSI-027] (partner 0.5 µM) under 0.5? rule not met

Quick check: relative viability of Nc1cccc2c1CN(C1CCC(=O)NC1=O)C2=O (stereo unspecified) [Lenalidomide] + Nc1nc2[nH]cc(CCc3ccc(C(=O)N[C@@H](CCC(=O)O)C(=O)O)cc3)c2c(=O)[nH]1 [Pemetrexed] (partner 0.2 µM) under 0.5? rule met

* * *

# Test system: LXF-289
# assayRemarks: relative viability (nuclei count vs DMSO), 5 days (fraction); higher = more cells survive
# experimentalContext: first compound 0.006325 µM
Label MET when relative viability is strictly below 0.9; at or above that, label NOT MET.

# compound, assignedCategory
rows = [
    ("CCNC(=O)c1noc(-c2cc(C(C)C)c(O)cc2O)c1-c1ccc(CN2CCOCC2)cc1 [Luminespib] + COc1cc2c(Oc3ccc(NC(=O)C4(C(=O)Nc5ccc(F)cc5)CC4)cc3F)ccnc2cc1OCCCN1CCOCC1 [Foretinib] (partner 0.25 µM)", "NOT MET"),
    ("CCNC(=O)c1noc(-c2cc(C(C)C)c(O)cc2O)c1-c1ccc(CN2CCOCC2)cc1 [Luminespib] + CC(=O)c1c(C)c2cnc(Nc3ccc(N4CCNCC4)cn3)nc2n(C2CCCC2)c1=O [Palbociclib] (partner 0.5 µM)", "MET"),
]

Quick check: relative viability of CCNC(=O)c1noc(-c2cc(C(C)C)c(O)cc2O)c1-c1ccc(CN2CCOCC2)cc1 [Luminespib] + NC(=O)Nc1cc(-c2cccc(F)c2)sc1C(=O)N[C@H]1CCCNC1 [AZD7762] (partner 0.2 µM) under 0.9? NOT MET

Quick check: relative viability of CCNC(=O)c1noc(-c2cc(C(C)C)c(O)cc2O)c1-c1ccc(CN2CCOCC2)cc1 [Luminespib] + O=C(c1cc(Cc2n[nH]c(=O)c3ccccc23)ccc1F)N1CCN(C(=O)C2CC2)CC1 [Olaparib] (partner 8 µM) under 0.9? NOT MET

Quick check: relative viability of CCNC(=O)c1noc(-c2cc(C(C)C)c(O)cc2O)c1-c1ccc(CN2CCOCC2)cc1 [Luminespib] + Cc1nc(Nc2ncc(C(=O)Nc3c(C)cccc3Cl)s2)cc(N2CCN(CCO)CC2)n1 [Dasatinib] (partner 0.075 µM) under 0.9? MET

Quick check: relative viability of CCNC(=O)c1noc(-c2cc(C(C)C)c(O)cc2O)c1-c1ccc(CN2CCOCC2)cc1 [Luminespib] + O=C(CCCCCCC(=O)Nc1ccccc1)NO [Vorinostat] (partner 1 µM) under 0.9? MET

Quick check: relative viability of CCNC(=O)c1noc(-c2cc(C(C)C)c(O)cc2O)c1-c1ccc(CN2CCOCC2)cc1 [Luminespib] + COc1cccc2cc(-c3nc([C@H]4CC[C@H](C(=O)O)CC4)n4ncnc(N)c34)[nH]c12 [OSI-027] (partner 0.5 µM) under 0.9? MET

* * *

This section presents molecules with their documented relative viability values.
# System: HCC-44
# assayRemarks: relative viability (nuclei count vs DMSO), 5 days (fraction); higher = more cells survive
# experimentalContext: first compound 0.06325 µM
Reply with just the number.

# molecule, relative viability
measured = [
    ("CCNC(=O)c1noc(-c2cc(C(C)C)c(O)cc2O)c1-c1ccc(CN2CCOCC2)cc1 [Luminespib] + Nc1ncn([C@H]2C[C@H](O)[C@@H](CO)O2)c(=O)n1 [Decitabine] (partner 2 µM)", 0.954),
    ("CCNC(=O)c1noc(-c2cc(C(C)C)c(O)cc2O)c1-c1ccc(CN2CCOCC2)cc1 [Luminespib] + CC(C)C[C@H](NC(=O)[C@H](Cc1ccccc1)NC(=O)c1cnccn1)B(O)O [Bortezomib] (partner 0.002 µM)", 0.139),
]

Now look at this entry.
Entry CCNC(=O)c1noc(-c2cc(C(C)C)c(O)cc2O)c1-c1ccc(CN2CCOCC2)cc1 [Luminespib] + CC(=O)c1c(C)c2cnc(Nc3ccc(N4CCNCC4)cn3)nc2n(C2CCCC2)c1=O [Palbociclib] (partner 0.5 µM) , relative viability reported as 0.986

* * *

# Test system: NCI-H1993
# assayRemarks: relative viability (nuclei count vs DMSO), 5 days (fraction); higher = more cells survive
# experimentalContext: first compound 8 µM
measure: relative viability

Worked set:
# compound, reportedMeasurement
records = [
    ("Nc1cccc2c1CN(C1CCC(=O)NC1=O)C2=O (configuration not stated) [Lenalidomide] + Cc1cc(Nc2cc(N3CCN(C)CC3)nc(Sc3ccc(NC(=O)C4CC4)cc3)n2)n[nH]1 [Tozasertib] (partner 0.1 µM)", 0.524),
    ("Nc1cccc2c1CN(C1CCC(=O)NC1=O)C2=O (configuration not stated) [Lenalidomide] + N=C(N)NC(=N)NCCc1ccccc1 [Phenformin] (partner 250 µM)", 0.516),
    ("Nc1cccc2c1CN(C1CCC(=O)NC1=O)C2=O (configuration not stated) [Lenalidomide] + C[C@]1(O)C[C@@H](c2nc(-c3ccc4ccc(-c5ccccc5)nc4c3)c3c(N)nccn32)C1 [Linsitinib] (partner 1 µM)", 0.708),
    ("Nc1cccc2c1CN(C1CCC(=O)NC1=O)C2=O (configuration not stated) [Lenalidomide] + Nc1ncn([C@H]2C[C@H](O)[C@@H](CO)O2)c(=O)n1 [Decitabine] (partner 2 µM)", 0.51),
    ("Nc1cccc2c1CN(C1CCC(=O)NC1=O)C2=O (configuration not stated) [Lenalidomide] + O=C(CCCCCCC(=O)Nc1ccccc1)NO [Vorinostat] (partner 1 µM)", 0.383),
    ("Nc1cccc2c1CN(C1CCC(=O)NC1=O)C2=O (configuration not stated) [Lenalidomide] + CC(=O)c1c(C)c2cnc(Nc3ccc(N4CCNCC4)cn3)nc2n(C2CCCC2)c1=O [Palbociclib] (partner 0.5 µM)", 0.455),
]

Entry Nc1cccc2c1CN(C1CCC(=O)NC1=O)C2=O (configuration not stated) [Lenalidomide] + Cc1nc(NC(=O)N2CCC[C@H]2C(N)=O)sc1-c1ccnc(C(C)(C)C(F)(F)F)c1 [Alpelisib] (partner 2 µM) , relative viability reported as 0.713
